Each record here notes measured self-splicing fitness (ln).
testMethodNotes: self-splicing fitness, log relative to wild type (ln ratio); higher = more splicing; Tetrahymena group I intron in knt gene, E. coli kanamycin selection, DiMSum; sequences stand for … in CUCUCU…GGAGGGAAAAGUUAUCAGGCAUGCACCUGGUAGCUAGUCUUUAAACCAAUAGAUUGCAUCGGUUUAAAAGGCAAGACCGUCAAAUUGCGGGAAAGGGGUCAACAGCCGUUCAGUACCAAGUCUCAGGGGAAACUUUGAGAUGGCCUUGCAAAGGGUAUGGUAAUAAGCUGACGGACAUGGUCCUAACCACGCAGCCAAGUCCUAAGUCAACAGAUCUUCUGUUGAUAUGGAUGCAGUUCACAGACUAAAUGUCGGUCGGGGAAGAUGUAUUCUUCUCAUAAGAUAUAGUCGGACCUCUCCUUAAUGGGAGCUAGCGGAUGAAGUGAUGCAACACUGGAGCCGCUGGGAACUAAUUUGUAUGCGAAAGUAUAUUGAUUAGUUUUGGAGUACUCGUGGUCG;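 also: selection with 25 µg/mL kanamycin versus none on LB agar overnight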
assaySetup: 30 °C
The answer should be written as a number, with no unit following it.

Q: Endpoint output: self-splicing fitness (ln) of CGAAAGCAAUAUUACGUACG . Value?
Result: -1.5

Q: What self-splicing fitness (ln) value was documented for this sequence, UGUCAGCAAUAUUACGUGGA ?
Result: -1.92

Q: Query: self-splicing fitness (ln); subject: GGUCAGCAAUAUUACGCUGU
Result: -3.34

Q: Looking for the measured self-splicing fitness (ln) of CACAAGCAAUAUUACGCUAU , can you help?
Result: -4.42

Q: Requested read-out: self-splicing fitness (ln). Entry: UCGCAGCAAUAUUACGCUUG
Result: -1.93

Q: Quick one: self-splicing fitness (ln) for UAAUAGCAAUAUUACGGACG ?
Result: -0.227

Q: // returns reported self-splicing fitness (ln) for input UCGCAGCAAUAUUACGGGUU
Result: -2.63

Q: // self-splicing fitness (ln) lookup, key: CACCAGCAAUAUUACGGGAA
Result: -1.05

Q: Return reported self-splicing fitness (ln); argument: UCUAAGCAAUAUUACGUUAU
Result: -3.25

Q: For the sequence CAUUAGCAAUAUUACGUAUG , what self-splicing fitness (ln) is on record?
Result: -3.57

Q: Would you mind telling me what self-splicing fitness (ln) value was observed for UACUAGCAAUAUUACGACGA ?
Result: -0.687

Q: Item UGAGAGCAAUAUUACGGACA has what recorded self-splicing fitness (ln)?
Result: -1.66

Q: Requested read-out: self-splicing fitness (ln). Entry: AAGCAGCAAUAUUACGAGUA
Result: -2.87

Q: Give its self-splicing fitness (ln) value. Item: CCCAAGCAAUAUUACGCGUC
Result: -3.06

Q: State the recorded self-splicing fitness (ln) for this entry: CCUGAGCAAUAUUACGAAGG
Result: -3.87

Q: Which value of self-splicing fitness (ln) has been reported for GUAGAGCAAUAUUACGCCGG in the records?
Result: -1.41

Q: # get_value(readout='self-splicing fitness (ln)', item= GAGCAGCAAUAUUACGUCCG )
Result: -0.984

Q: May I ask what self-splicing fitness (ln) has been recorded for AAACAGCAAUAUUACGCCAA ?
Result: -3.08
